biological target: Human plasma kallikrein (Homo sapiens (Human)); experiment: Kallikrein Assay; conditions: purified Human plasma kallikrein 0.5 nM, Acetyl-K-P-R-AFC, pH 7.4; Ki from IC50 by Cheng Prusoff
Sequence (P03952 391-638): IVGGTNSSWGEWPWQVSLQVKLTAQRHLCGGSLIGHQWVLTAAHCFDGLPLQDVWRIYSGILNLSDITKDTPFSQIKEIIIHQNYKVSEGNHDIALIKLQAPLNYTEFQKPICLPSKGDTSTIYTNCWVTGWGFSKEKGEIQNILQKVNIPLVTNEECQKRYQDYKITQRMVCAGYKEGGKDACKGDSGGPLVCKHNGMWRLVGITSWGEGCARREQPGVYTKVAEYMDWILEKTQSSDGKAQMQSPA
Sequence (P03952 20-390 partner): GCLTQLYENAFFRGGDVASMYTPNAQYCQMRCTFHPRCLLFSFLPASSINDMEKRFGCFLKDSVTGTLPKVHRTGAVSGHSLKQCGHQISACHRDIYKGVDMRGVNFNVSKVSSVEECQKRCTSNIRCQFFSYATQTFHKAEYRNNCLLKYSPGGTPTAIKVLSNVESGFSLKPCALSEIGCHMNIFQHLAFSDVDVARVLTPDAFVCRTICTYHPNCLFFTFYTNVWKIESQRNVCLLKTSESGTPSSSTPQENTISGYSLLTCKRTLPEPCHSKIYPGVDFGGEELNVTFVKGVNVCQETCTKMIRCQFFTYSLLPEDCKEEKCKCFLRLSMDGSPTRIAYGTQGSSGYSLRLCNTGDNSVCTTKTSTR
Note to self: Ki under 2 nM means TRUE, ties and anything higher get FALSE.

# example entries with known answers
COC(=O)Nc1ccc(C(=O)N[C@@H](CC(=O)N2CC(O)(C3CC3)C2)C(=O)N2CCC[C@@]3(C2)OC(=O)Nc2ccc(Cl)cc23)cc1: FALSE
O=C1Nc2ccc(Cl)c(F)c2[C@@]2(CCCN(C(=O)[C@H](CC3CC3)NC(=O)c3cc4cc(O)ccc4[nH]3)C2)O1: TRUE
O=C1Nc2ccc(Cl)c(F)c2[C@@]2(CCCN(C(=O)[C@H](CC3CC3)NC(=O)c3ccc(-c4ncc[nH]4)s3)C2)O1: TRUE
COC(=O)Nc1ccc(C(=O)N[C@@H](CC(C)(C)OC)C(=O)N2CCC[C@@]3(C2)OC(=O)Nc2ccc(Cl)c(F)c23)cc1: FALSE
COC(=O)Nc1ccc(C(=O)N[C@@H](Cn2cccn2)C(=O)N2CCC3(C2)OC(=O)Nc2ccc(Cl)cc23)cc1 (stereo partly shown): FALSE
O=C1CSc2cc(C(=O)N[C@@H](Cc3ccccc3)C(=O)N3CCC4(C3)OC(=O)Nc3ccc(Cl)cc34)ccc2N1 (stereo partly shown): FALSE

q: Lab note: Ki threshold 2 nM. Does this compound come in strictly under it? COC(=O)Nc1ccc(C(=O)N[C@@H](Cc2ccccc2)C(=O)N2CCC[C@@]3(C2)OC(=O)Nc2ccc(OC)cc23)cc1
a: FALSE

q: Lab note: Ki threshold 2 nM. Does this compound come in strictly under it? O=C1Nc2ccc(Cl)c(F)c2[C@@]2(CCCN(C(=O)[C@H](Cc3ccccc3)NC(=O)c3ccc4[nH]c(=O)ccc4c3)C2)O1
a: TRUE

q: Lab note: Ki threshold 2 nM. Does this compound come in strictly under it? COC(=O)Nc1ccc(C(=O)N[C@@H](Cc2ccc(OC3CCCC3)cc2)C(=O)N2CCC3(C2)OC(=O)Nc2ccc(Cl)cc23)cc1 (stereo partly shown)
a: TRUE
